Every entry's value here was drawn from the supplement of paper PMC3545927.

# studyTarget: furin, P09958;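 note: purified furin at 1:10 enzyme:substrate in 50 mM HEPES pH 7.5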
# Sequence (P09958 whole entry): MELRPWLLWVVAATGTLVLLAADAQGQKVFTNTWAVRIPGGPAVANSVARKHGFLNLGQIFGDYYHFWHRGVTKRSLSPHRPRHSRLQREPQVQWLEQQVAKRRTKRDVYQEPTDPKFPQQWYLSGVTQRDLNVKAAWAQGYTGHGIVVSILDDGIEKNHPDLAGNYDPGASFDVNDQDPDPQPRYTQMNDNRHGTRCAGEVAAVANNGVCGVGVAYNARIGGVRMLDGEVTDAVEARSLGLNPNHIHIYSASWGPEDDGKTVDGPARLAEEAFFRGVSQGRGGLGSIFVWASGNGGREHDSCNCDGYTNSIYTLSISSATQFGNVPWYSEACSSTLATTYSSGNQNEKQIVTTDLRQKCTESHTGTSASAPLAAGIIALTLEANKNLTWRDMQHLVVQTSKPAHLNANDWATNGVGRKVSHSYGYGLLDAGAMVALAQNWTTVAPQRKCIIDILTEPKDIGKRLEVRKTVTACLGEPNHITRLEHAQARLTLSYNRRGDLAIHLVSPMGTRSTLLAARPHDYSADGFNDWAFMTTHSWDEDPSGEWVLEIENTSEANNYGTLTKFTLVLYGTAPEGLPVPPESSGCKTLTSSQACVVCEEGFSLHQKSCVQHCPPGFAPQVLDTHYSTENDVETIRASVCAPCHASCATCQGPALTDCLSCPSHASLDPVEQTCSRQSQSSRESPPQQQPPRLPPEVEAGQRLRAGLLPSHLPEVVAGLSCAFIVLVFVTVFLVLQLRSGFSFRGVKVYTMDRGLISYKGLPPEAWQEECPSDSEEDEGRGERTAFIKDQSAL
# assayMethodText: furin cleavage Z-score vs untreated control; higher = more cleavage, active = 3.5 or more, inactive = 1 or less, 8 variable residues between constant flanks
# conditionSet: 15 min
This is one part of the list. How many sequences the whole screen found active is unknown.
For each record, write down the corresponding furin cleavage Z-score.
// keep it numeric: no unit symbol after the value

// fetch furin cleavage Z-score given entry CARRRRASAPAGNASASA [FS-3062]
6.83

Input CAREKRQAKHAGNASASA [FS-2255] , output reported furin cleavage Z-score.
10.9

Write down furin cleavage Z-score measured for item CAQVCCSMSYAGNASASA [HC2002]
-0.875

Respond only with furin cleavage Z-score recorded for CARRRRHRSYAGNASASA [FS-2078]
11.1

Please report the measured furin cleavage Z-score for CARRRRPGGPAGNASASA [FS-2792]
-0.454

Report furin cleavage Z-score, nothing else, for this sequence: CARRRRHSPPAGNASASA [FS-2453]
8.37

Tell me measured furin cleavage Z-score for CARSHRSCRTAGNASASA [FS-1792] please.
2.22
